The reported numbers originate from paper PMC7581941.

Please provide measured pIC50 for the entries that follow.
System: SUDHL-4 cells
protocol description: Cell growth inhibition (cell counting) and median-drug effect analysis, SUDHL-4
Assay type: cell-based
measurement context: Homo sapiens, SU-DHL-4, read-out: IC50 (50% growth inhibition); SUDHL 4, 72 h exposure
Here pIC50 is given on a logarithmic scale as minus log10 of the concentration in mol/L.

Exercise: Quote pIC50 reported for O=C(/C=C/c1cccc(S(=O)(=O)Nc2ccccc2)c1)NO [BLS, Belinostat] please.
Solution: 7.14

Exercise: Give reported pIC50 value for C#CCC(Cc1cnc2nc(N)nc(N)c2n1)c1ccc(C(=O)N[C@@H](CCC(=O)O)C(=O)O)cc1 (some centres unmarked) [PLX, Pralatrexate]
Solution: 8.25

---

Test system: HT cells
protocol description: Cell growth inhibition (cell counting) and median-drug effect analysis, HT
Format: cell-based
measurement context: Homo sapiens, HT, 72 h, read-out: IC50 (50% growth inhibition), HT, 72 h exposure
measurement kind: IC50

Exercise: Return IC50 (reported value) for this compound: C#CCC(Cc1cnc2nc(N)nc(N)c2n1)c1ccc(C(=O)N[C@@H](CCC(=O)O)C(=O)O)cc1 (some centres unmarked) [PLX, Pralatrexate]
Solution: ~10 nM

Exercise: Respond only with IC50 recorded for "O=C(/C=C/c1cccc(S(=O)(=O)Nc2ccccc2)c1)NO"
Solution: ~220 nM
